- Measurement Protocol: Cytotoxicity, cell count of monolayer culture after 24 h exposure
- Type: cell-based, human
- Measurement Parameters: human, fl amnion cells, Prüfkonzentration 0,005 %; 24 h; read-out: Median der Zellzahl
Readout: viability at 24 h (%)
Kindly provide the numeric value in % only, without the unit symbol.

So what's the measured viability at 24 h for this one? CCCCCCCCCCCCSC(=N)N
70

Next compound: CCCCCCCCCCSC(=N)N
33.5

###

Field: viability at 24 h. Provide a value for each of the compounds that follow.
- Measurement Protocol: Cytotoxicity, cell count of monolayer culture after 24 h exposure
- Type: cell-based, human
- Measurement Parameters: human, fl amnion cells, Prüfkonzentration 0,0001 %; 24 h; read-out: Median der Zellzahl

So what's the measured viability at 24 h for this one? CCCCCCCCCCCCSC(=N)N [Dodecylthiouroniumchlorid]
101%

Next compound: CCCCCCCCCCSC(=N)N [Decylthiouroniumbromid]
96.8%
